- target-desc: Cytochrome P450 11B1, mitochondrial (Homo sapiens, UniProt P15538)
- Sequence (P15538 whole entry): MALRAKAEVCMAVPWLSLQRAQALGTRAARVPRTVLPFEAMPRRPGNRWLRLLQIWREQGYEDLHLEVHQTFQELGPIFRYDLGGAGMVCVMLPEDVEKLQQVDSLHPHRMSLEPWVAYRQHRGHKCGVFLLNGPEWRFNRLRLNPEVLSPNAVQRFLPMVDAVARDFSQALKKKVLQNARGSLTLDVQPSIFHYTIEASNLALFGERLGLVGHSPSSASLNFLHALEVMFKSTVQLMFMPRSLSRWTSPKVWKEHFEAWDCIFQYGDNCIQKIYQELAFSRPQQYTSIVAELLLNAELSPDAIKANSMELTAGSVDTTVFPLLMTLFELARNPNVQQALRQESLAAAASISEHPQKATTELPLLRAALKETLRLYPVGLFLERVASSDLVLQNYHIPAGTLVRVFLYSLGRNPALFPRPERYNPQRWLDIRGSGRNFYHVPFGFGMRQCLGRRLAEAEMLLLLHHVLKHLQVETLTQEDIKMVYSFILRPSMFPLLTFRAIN
- assay-text: Inhibition of human CYP11B1 expressed in hamster V79MZh cells using [1,2-3H]-11-deoxycorticosterone as substrate after 6 hrs by HPTLC analysis
Measured IC50 by item

The cases that follow already have their IC50 on record.
smiles_string=O=c1c2ccc(F)cc2oc2cc(Cn3ccnc3)ccc12 recorded_value="0.0123 µM"
smiles_string=O=c1c2ccc(Cn3ccnc3)cc2oc2cc(Oc3ccccc3)ccc12 recorded_value="0.0065 µM"
smiles_string=O=c1c2ccc(Cn3ccnc3)cc2oc2cc([N+](=O)[O-])ccc12 recorded_value="0.0192 µM"
smiles_string=O=c1c2ccccc2oc2c(Cn3ccnc3)cccc12 recorded_value="0.0151 µM"

Task item: Give reported IC50 for O=c1c2ccccc2oc2cc(Cn3ccnc3)ccc12 (Cytochrome P450 11B1, mitochondrial (Homo sapiens, UniProt P15538))
Reply: 0.0708 µM

Task item: Report measured IC50 on Cytochrome P450 11B1, mitochondrial (Homo sapiens, UniProt P15538); entry: O=c1c2ccccc2oc2cccc(Cn3ccnc3)c12
Reply: 0.0991 µM

Task item: Provide the reported IC50 (system: Cytochrome P450 11B1, mitochondrial (Homo sapiens, UniProt P15538)) for COc1ccc2c(=O)c3ccc(Cn4ccnc4)cc3oc2c1
Reply: 0.0154 µM

###

- target-desc: Cytochrome P450 11B1, mitochondrial (Homo sapiens, UniProt P15538)
- assay-text: Inhibition of human CYP11B1 expressed in hamster V79MZh cells using [1,2-3H]-11-deoxycorticosterone as substrate after 6 hrs by HPTLC analysis
measured-parameter: pIC50
On this scale, pIC50 is minus log10 of a concentration expressed in M (mol/L).

Example cases with answers are listed next.
smiles_string=O=c1c2ccc(Cn3ccnc3)cc2oc2cc(OC3CCCC3)ccc12 recorded_value=8.24
smiles_string=O=c1c2ccc(Cn3ccnc3)cc2oc2cc(OCC3CC3)ccc12 recorded_value=8.33
smiles_string=O=c1c2ccc(Cl)cc2oc2cc(Cn3ccnc3)ccc12 recorded_value=8.18

Task item: Return pIC50 (reported value) for this compound: O=c1c2ccc(Br)cc2oc2cc(Cn3ccnc3)ccc12
Reply: 7.94

Task item: Provide pIC50 value for the following compound: CC(C)Oc1ccc2c(=O)c3ccc(Cn4ccnc4)cc3oc2c1
Reply: 8.39

Task item: Identify measured pIC50 associated with O=c1c2ccccc2oc2ccc(Cn3ccnc3)cc12
Reply: 6.33
